Target: recombinant human enteropeptidase (Homo sapiens (Human))
Experiment: Measurement of enteropeptidase inhibitory activity
Details: Dixon plot
Structures can show the parent of a compound that is named as a salt.
Please assign not fulfilled whenever Ki is at or above 1 nM, and fulfilled whenever it is below.

Q. # strict comparison: is reported Ki < 1 nM? input = CCCC(Cc1ccc(C(=O)Oc2ccc(C(=N)N)cc2)s1)C(=O)N[C@@H](CC(=O)O)C(=O)O (stereo partly shown) [Compound B-33]
A. not fulfilled

Q. # strict comparison: is reported Ki < 1 nM? input = CC(Cc1ccc(C(=O)Oc2ccc(C(=N)N)cc2)s1)C(=O)O (stereo not shown) [Compound B-6, trifluoroacetic acid salt]
A. not fulfilled

Q. # strict comparison: is reported Ki < 1 nM? input = N=C(N)c1ccc(OC(=O)c2ccc(CCC(=O)N[C@@H](CO)C(=O)O)s2)c(F)c1 [Compound B-66]
A. fulfilled

Q. # strict comparison: is reported Ki < 1 nM? input = C/C(=C\c1ccc(C(=O)Oc2ccc(C(=N)N)cc2)s1)C(=O)NCC(=O)O [Compound B-2]
A. not fulfilled

Q. # strict comparison: is reported Ki < 1 nM? input = N=C(N)c1ccc(OC(=O)c2ccc(-c3ccc(C(=O)N[C@@H](CC(=O)O)C(=O)O)cc3)o2)cc1 [Compound A-68, trifluoroacetic acid salt]
A. not fulfilled

Q. # strict comparison: is reported Ki < 1 nM? input = CCC(Cc1ccc(C(=O)Oc2ccc(C(=N)N)cc2)o1)C(=O)O (stereo not shown) [Compound A-29, trifluoroacetic acid salt]
A. fulfilled

====

Target: recombinant human enteropeptidase (Homo sapiens (Human), UniProt P98073)
Sequence (P98073 whole entry): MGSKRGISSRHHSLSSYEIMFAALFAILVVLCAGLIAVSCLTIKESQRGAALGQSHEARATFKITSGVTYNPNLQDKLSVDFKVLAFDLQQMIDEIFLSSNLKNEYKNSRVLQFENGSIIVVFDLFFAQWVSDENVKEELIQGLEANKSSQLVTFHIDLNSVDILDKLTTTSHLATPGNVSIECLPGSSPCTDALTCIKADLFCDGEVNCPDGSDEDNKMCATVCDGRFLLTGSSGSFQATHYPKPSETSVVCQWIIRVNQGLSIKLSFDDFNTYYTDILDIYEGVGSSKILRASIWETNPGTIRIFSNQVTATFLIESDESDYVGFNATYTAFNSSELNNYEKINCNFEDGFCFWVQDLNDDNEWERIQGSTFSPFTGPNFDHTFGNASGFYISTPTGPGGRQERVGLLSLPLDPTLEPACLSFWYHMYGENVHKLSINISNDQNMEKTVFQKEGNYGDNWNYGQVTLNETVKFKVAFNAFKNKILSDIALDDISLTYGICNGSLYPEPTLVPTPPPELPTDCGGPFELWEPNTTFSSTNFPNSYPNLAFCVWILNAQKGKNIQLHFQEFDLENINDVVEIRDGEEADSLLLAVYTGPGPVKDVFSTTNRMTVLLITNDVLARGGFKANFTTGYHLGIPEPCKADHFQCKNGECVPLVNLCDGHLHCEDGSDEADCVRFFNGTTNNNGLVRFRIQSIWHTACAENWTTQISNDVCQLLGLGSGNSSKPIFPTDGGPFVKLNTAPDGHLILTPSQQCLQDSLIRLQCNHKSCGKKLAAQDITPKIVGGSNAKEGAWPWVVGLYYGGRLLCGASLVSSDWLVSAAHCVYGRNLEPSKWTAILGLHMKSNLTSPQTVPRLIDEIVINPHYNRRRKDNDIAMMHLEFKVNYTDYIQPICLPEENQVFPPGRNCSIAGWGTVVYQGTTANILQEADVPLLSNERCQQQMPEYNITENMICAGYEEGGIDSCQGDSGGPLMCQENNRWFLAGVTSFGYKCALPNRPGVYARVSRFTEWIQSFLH
Experiment: Measurement of enteropeptidase inhibitory activity
Details: Dixon plot
pKi: −log10 of the molar value.
Would you please tag the item YES when its pKi is 9 or above, and NO when it is below?

Q. Confirm if pKi reported for the molecule N=C(N)c1ccc(OC(=O)c2ccc(-c3ccc(C(=O)NCC(=O)O)cc3)o2)cc1 is 9 or above.
A. NO

Q. Confirm if pKi reported for the molecule CC(Cc1ccc(C(=O)Oc2ccc(C(=N)N)cc2)o1)C(=O)N1CCC[C@@H]1C(=O)O (stereo partly drawn) is 9 or above.
A. NO

Q. Confirm if pKi reported for the molecule N=C(N)c1ccc(OC(=O)c2ccc(CCC(=O)N[C@H](CC(=O)O)C(=O)O)s2)c(F)c1 is 9 or above.
A. YES

====

Molecular target: recombinant human enteropeptidase (Homo sapiens (Human), UniProt P98073)
Test: Measurement of enteropeptidase inhibitory activity
Format: biochemical
Conditions: Dixon plot
pKi: −log10 of the molar value. Structures can show the parent of a compound that is named as a salt.
Would you please tag the item Condition met when its pKi is 9 or above, and Condition not met when it is below?

Q. Confirm if pKi reported for the compound C/C(=C\c1ccc(C(=O)Oc2ccc(C(=N)N)cc2)o1)C(=O)N(CCO)Cc1ccccc1 is 9 or above.
A. Condition not met

Q. Confirm if pKi reported for the compound CC(Cc1ccc(C(=O)Oc2ccc(C(=N)N)cc2)o1)C(=O)NCC(=O)O (centres unmarked) is 9 or above.
A. Condition not met

Q. Confirm if pKi reported for the compound C/C(=C\c1ccc(C(=O)Oc2ccc(C(=N)N)cc2)o1)C(=O)N[C@H](C(=O)O)C(C)O (some centres unmarked) is 9 or above.
A. Condition not met

Q. Confirm if pKi reported for the compound C[C@@H](Cc1ccc(C(=O)Oc2ccc(C(=N)N)cc2)o1)C(=O)N[C@@H](CC(=O)O)C(=O)O [Compound A-43, trifluoroacetic acid salt] is 9 or above.
A. Condition met

Q. Confirm if pKi reported for the compound CC(Cc1ccc(C(=O)Oc2ccc(C(=N)N)cc2F)s1)C(=O)N[C@@H](CS(=O)(=O)O)C(=O)O (some centres unmarked) is 9 or above.
A. Condition met

Q. Confirm if pKi reported for the compound CC(Cc1ccc(C(=O)Oc2ccc(C(=N)N)cc2Cl)s1)C(=O)NCP(=O)(O)O (centres unmarked) is 9 or above.
A. Condition met

Q. Confirm if pKi reported for the compound CC(Cc1ccc(C(=O)Oc2ccc(C(=N)N)cc2)o1)C(=O)N[C@H](CC(=O)O)C(=O)O (some centres unmarked) is 9 or above.
A. Condition met

Q. Confirm if pKi reported for the compound CC(CCC(=O)N[C@@H](CC(=O)O)C(=O)O)Cc1ccc(C(=O)Oc2ccc(C(=N)N)cc2F)s1 (some centres unmarked) is 9 or above.
A. Condition met

====

Biological target: recombinant human enteropeptidase (Homo sapiens (Human))
Experiment: Measurement of enteropeptidase inhibitory activity
Conditions: Dixon plot
Counter-ions that a name gives are not always drawn.
readout kind: pKi
Scale explanation: pKi corresponds to minus log10 of a concentration expressed in moles per litre.

Q. Answer with the recorded pKi for the compound listed here: CC(Cc1ccc(C(=O)Oc2ccc(C(=N)N)cc2)o1)C(=O)SC(CC(=O)O)C(=O)O (stereo not shown) [Compound A-73, trifluoroacetic acid salt]
A. 9.06

Q. Answer with the recorded pKi for the compound listed here: CC(CCC(=O)O)Cc1ccc(C(=O)Oc2ccc(C(=N)N)cc2F)s1 (stereo not shown)
A. 9.06

Q. Answer with the recorded pKi for the compound listed here: CC[C@H](Cc1ccc(C(=O)Oc2ccc(C(=N)N)cc2)o1)C(=O)N[C@H](CCC(=O)O)C(=O)O
A. 8.99

Q. Answer with the recorded pKi for the compound listed here: CCCC(Cc1ccc(C(=O)Oc2ccc(C(=N)N)cc2)o1)C(=O)O (stereo not shown)
A. 9.01

====

Molecular target: recombinant human enteropeptidase (Homo sapiens (Human), UniProt P98073)
Assay: Measurement of enteropeptidase inhibitory activity
Conditions: Dixon plot
pKi: −log10 of the molar value. Counter-ions that a name gives are not always drawn.
Would you please tag the item Satisfied when its pKi is 9 or above, and Not satisfied when it is below?

Q. Confirm if pKi reported for the compound CC(Cc1ccc(C(=O)Oc2ccc(C(=N)N)cc2)s1)C(=O)NCC(=O)O (centres unmarked) is 9 or above.
A. Not satisfied

Q. Confirm if pKi reported for the compound CC(Cc1ccc(C(=O)Oc2ccc(C(=N)N)cc2)o1)C(=O)N1CCCC(C(=O)O)C1 (centres unmarked) [Compound A-52, trifluoroacetic acid salt] is 9 or above.
A. Not satisfied

Q. Confirm if pKi reported for the compound C/C(=C\c1nc(C(=O)Oc2ccc(C(=N)N)cc2)cs1)C(=O)N(CCCO)CC(=O)O is 9 or above.
A. Not satisfied

Q. Confirm if pKi reported for the compound CC(Cc1ccc(C(=O)Oc2ccc(C(=N)N)cc2Cl)s1)C(=O)O (centres unmarked) is 9 or above.
A. Satisfied

Q. Confirm if pKi reported for the compound CC(Cc1cc(C(=O)Oc2ccc(C(=N)N)cc2)cs1)C(=O)N[C@@H](CC(=O)O)C(=O)O (some centres unmarked) is 9 or above.
A. Not satisfied

Q. Confirm if pKi reported for the compound N=C(N)c1ccc(OC(=O)c2ccc(CCC(=O)N[C@@H](CC(=O)O)C(=O)O)s2)c(F)c1 [Compound B-32, trifluoroacetic acid salt] is 9 or above.
A. Satisfied

Q. Confirm if pKi reported for the compound CC(Cc1ccc(C(=O)Oc2ccc(C(=N)N)c(F)c2)s1)C(=O)N[C@@H](CC(=O)O)C(=O)O (some centres unmarked) is 9 or above.
A. Satisfied

Q. Confirm if pKi reported for the compound CC(Cc1ccc(C(=O)Oc2ccc(C(=N)N)cc2)o1)C(=O)NN(CC(=O)O)CC(=O)O (centres unmarked) [Compound A-74, trifluoroacetic acid salt] is 9 or above.
A. Not satisfied

Q. Confirm if pKi reported for the compound N=C(N)c1ccc(OC(=O)c2ccc(-c3ccc(C(=O)N[C@@H](CC(=O)O)C(=O)O)cc3)s2)c(F)c1 is 9 or above.
A. Not satisfied

Q. Confirm if pKi reported for the compound CC(C)(Cc1ccc(C(=O)Oc2ccc(C(=N)N)cc2F)s1)C(=O)N[C@@H](CC(=O)O)C(=O)O [Compound B-64, trifluoroacetic acid salt] is 9 or above.
A. Satisfied

====

Biological target: recombinant human enteropeptidase (Homo sapiens (Human), UniProt P98073)
Experiment: Measurement of enteropeptidase inhibitory activity
Settings: Dixon plot
Where a name gives a salt, the structure may show the parent alone.
Record form. Attribute: Ki. Fill in for each entry.
Write it as a number; the unit nM goes unstated.

Q. Answer with the recorded Ki for the compound listed here: C=CCN(C(=O)CCc1ccc(C(=O)Oc2ccc(C(=N)N)cc2F)s1)[C@@H](CC(=O)O)C(=O)O [Compound B-63, trifluoroacetic acid salt]
A. 0.55

Q. Answer with the recorded Ki for the compound listed here: CC(Cc1ccc(C(=O)Oc2ccc(C(=N)N)cc2)o1)C(=O)N1CCCC1 (stereo not shown) [Compound A-51]
A. 4.9

Q. Answer with the recorded Ki for the compound listed here: CC(Cc1ccc(C(=O)Oc2ccc(C(=N)N)cc2F)s1)C(=O)N[C@H](CC(=O)O)C(=O)O (stereo partly shown) [Compound B-22]
A. 0.5

Q. Answer with the recorded Ki for the compound listed here: N=C(N)c1ccc(OC(=O)c2ccc(CC(=O)N[C@@H](CC(=O)O)C(=O)O)o2)cc1 [Compound A-39, trifluoroacetic acid salt]
A. 0.67

Q. Answer with the recorded Ki for the compound listed here: CC(Cc1cc(C(=O)Oc2ccc(C(=N)N)cc2F)co1)C(=O)N[C@@H](CC(=O)O)C(=O)O (stereo partly shown) [Compound A-66]
A. 0.32

Q. Answer with the recorded Ki for the compound listed here: CCC(Cc1ccc(C(=O)Oc2ccc(C(=N)N)cc2)o1)C(=O)N[C@H](CC(=O)O)C(=O)O (stereo partly shown) [Compound A-31]
A. 0.5

Q. Answer with the recorded Ki for the compound listed here: N=C(N)c1ccc(OC(=O)c2ccc(-c3cccc(C(=O)N[C@@H](CC(=O)O)C(=O)O)c3)s2)cc1 [Compound B-58]
A. 9.8

Value source: patent US8609715B2
